Cited source: patent US20200283478A1

TESTED_SYSTEM: T1, PCSK9Δhelix (human, Chemically biotinylated in the phage ELISAs; the site is not given.)
T1 construct: construct M1-Q692 with engineered TEV site, cleaved by TEV; also called His-PCSK9Δhelix; open groove PCSK9Δhelix
T1 sequence (prodomain, as listed by the source mutant limits assumed, chain 1 of 2): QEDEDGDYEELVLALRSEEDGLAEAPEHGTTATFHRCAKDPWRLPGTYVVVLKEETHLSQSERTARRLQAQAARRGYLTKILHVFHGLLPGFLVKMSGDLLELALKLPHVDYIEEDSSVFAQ
T1 sequence (chain, as listed by the source mutant limits assumed, chain 2 of 2): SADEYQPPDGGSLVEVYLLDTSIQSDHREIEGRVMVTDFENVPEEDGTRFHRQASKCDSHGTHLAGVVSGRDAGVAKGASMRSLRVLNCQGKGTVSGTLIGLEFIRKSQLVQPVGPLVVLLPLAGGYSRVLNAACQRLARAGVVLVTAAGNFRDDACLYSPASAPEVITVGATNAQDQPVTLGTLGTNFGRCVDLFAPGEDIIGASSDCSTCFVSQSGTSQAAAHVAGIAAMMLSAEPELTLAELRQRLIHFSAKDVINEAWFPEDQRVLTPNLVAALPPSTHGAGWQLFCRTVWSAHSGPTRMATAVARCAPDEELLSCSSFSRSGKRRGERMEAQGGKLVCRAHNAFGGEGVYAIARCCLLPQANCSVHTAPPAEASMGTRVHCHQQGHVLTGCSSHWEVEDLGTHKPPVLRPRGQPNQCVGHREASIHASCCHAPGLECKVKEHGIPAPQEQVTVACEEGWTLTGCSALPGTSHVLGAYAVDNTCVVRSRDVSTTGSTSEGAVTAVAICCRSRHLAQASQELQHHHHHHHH
ASSAY_DETAILS: phage competition ELISA: synthetic peptide against its phage-displayed counterpart
Ends that are not written are not given here.
ENDPOINT_NAME: IC50 (nM)
Answer format: numeric, nM implied, no suffix.

INSERT INTO measurements (binder, observed_result) VALUES
  ('SGDLMPWNLVRIGLLR (synthetic; Compound 20 = Pep2-8_K9gvpep7) [K9gvpep7]', 914);

IC50 lookup needed for SGCRLPWNLQRIGLPC (not fully specified (bridges); cysteine pairing not given here, synthetic; Compound 19 = Pep2-8_K9gvpep4, the two N-terminal residues of K9gvpep4 being the SG of the GSG linker) [K9gvpep4] , thanks.
544
